Below, each of the binders is paired with its reported IC50 (µg/mL), pseudovirus neutralization value.
molecular target: HIV-1 Env of isolate VLGCA1 (HIV-1); assay: cell-based or functional assay

Study these solved cases before continuing.
binder="PGT-127 (antibody, V domains shown) VH: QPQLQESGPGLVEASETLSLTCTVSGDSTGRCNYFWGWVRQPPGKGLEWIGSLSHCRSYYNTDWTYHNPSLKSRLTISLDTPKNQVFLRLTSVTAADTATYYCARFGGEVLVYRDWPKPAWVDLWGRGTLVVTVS VL: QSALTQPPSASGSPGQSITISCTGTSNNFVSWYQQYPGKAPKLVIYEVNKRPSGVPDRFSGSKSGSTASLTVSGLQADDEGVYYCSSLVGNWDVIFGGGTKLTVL" measured_value="> 50 µg/mL"
binder="PGT-123 (antibody, V domains shown) VH: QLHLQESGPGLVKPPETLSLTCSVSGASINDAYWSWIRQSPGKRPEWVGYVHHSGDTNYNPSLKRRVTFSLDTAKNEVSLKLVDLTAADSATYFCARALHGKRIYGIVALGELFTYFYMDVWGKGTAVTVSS VL: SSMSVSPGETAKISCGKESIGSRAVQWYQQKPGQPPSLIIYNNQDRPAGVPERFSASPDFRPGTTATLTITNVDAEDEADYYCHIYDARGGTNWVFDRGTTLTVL" measured_value="> 50 µg/mL"
binder="PGT-125 (antibody, V domains shown) VH: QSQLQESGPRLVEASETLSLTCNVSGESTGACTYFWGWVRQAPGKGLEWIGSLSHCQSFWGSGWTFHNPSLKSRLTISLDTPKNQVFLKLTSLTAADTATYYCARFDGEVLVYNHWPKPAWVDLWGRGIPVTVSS VL: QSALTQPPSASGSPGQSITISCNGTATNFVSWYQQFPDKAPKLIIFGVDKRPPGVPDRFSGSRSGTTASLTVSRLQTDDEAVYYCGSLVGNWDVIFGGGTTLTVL" measured_value="0.078 µg/mL"

Ask: Tell me measured IC50 (µg/mL), pseudovirus neutralization for PGT-126 (antibody, V domains shown) VH: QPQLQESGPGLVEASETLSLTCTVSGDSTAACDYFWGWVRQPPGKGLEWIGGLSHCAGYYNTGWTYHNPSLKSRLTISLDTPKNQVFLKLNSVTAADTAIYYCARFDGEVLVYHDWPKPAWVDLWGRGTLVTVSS VL: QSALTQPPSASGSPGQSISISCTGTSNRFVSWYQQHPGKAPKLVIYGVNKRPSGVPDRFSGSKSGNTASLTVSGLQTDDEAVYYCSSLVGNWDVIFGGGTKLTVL please.
Result: > 50 µg/mL

Numbers sourced from patent US20200024330A1.
